- systemTested: SARS-CoV-2 RBD protein (Sino Biological, Cat: 40592-V08B) (SARS-CoV-2, UniProt P0DTC2 319-541)
- protocolNotes: BLI (Octet), mAb on Protein A sensor
endpoint: koff
The reply should read as a number followed by its unit.

Solved entries:
{"columns": ["binder", "koff"],
 "data": [
  ["CoV2-11 (antibody, V domains shown) VH: QVELVESGGGLVQPGRSLRLSCEASGFSFDNYAMHWVRQTPGKGLEWVSGITGNSGTIGYADSVKGRFTISRDNAKNSLYLQMNRLRAEDTALYYCAKDTDYDSSGSYFDYWGQGTLVTVSS VL: QPVLTQPPSVAVAPGQTARITCGGKNIGRESVHWYQQKPDQAPVLVIYSDGDRPSGTSERFSGSRSGNAATLTISRVEAGDEADYFCQVWDPDTDHYVFGTGTELTVL", "0.000306 s⁻¹"],
  ["CoV2-19 (antibody, V domains shown) VH: QVQLVQSGAEMKKPGASVKVSCKTSGYTFTNSYIHWVRQAPGQGLEWMGWINPISGGTNYAQKFQGRVTMTRDTSINTAYMELSRLRSDDTAVYYCARDRGDYDYGWGTSPFYFDYWGQGTLVTVSS VL: AIQLTQSPSSLSASVGDRVTITCRTSHTVNSYLNWYQQEPGKAPKLLIYAASNLQSGVPSRFSGSGSGTDFSLTIHNLQPEDFATYYCQQSYRTPLTFGQGTKVDIK", "0.00137 s⁻¹"]
]}

Entry CoV2-20 (antibody, V domains shown) VH: QVQLVESGGDLVQPGRSLRLSCAASGFIFDDYAMHWVRQVPGKGPEWVSGVNRDSTYVGQADSVKGRFTISRDNAKKALFLQMDSLRVEDTALYYCVRGMTRVATDAFDFWGQGTMVTVSS VL: AIQMTQSPSSLSASVGDRVTITCRASQSINGYLNWYQQKPGKAPKLLIYSASRLQSGVPSRFSGSGSGADYTLTISNLQVEDFATYYCQQSYSTPPVTFGQGTRLEIK , koff reported as 0.000805 s⁻¹
